Molecular target: prolyl endopeptidase (Rattus norvegicus)
Construct: prolyl endopeptidase extracted from rat brain; from tissue; host or cells: rat brain
Sequence (O70196 whole entry): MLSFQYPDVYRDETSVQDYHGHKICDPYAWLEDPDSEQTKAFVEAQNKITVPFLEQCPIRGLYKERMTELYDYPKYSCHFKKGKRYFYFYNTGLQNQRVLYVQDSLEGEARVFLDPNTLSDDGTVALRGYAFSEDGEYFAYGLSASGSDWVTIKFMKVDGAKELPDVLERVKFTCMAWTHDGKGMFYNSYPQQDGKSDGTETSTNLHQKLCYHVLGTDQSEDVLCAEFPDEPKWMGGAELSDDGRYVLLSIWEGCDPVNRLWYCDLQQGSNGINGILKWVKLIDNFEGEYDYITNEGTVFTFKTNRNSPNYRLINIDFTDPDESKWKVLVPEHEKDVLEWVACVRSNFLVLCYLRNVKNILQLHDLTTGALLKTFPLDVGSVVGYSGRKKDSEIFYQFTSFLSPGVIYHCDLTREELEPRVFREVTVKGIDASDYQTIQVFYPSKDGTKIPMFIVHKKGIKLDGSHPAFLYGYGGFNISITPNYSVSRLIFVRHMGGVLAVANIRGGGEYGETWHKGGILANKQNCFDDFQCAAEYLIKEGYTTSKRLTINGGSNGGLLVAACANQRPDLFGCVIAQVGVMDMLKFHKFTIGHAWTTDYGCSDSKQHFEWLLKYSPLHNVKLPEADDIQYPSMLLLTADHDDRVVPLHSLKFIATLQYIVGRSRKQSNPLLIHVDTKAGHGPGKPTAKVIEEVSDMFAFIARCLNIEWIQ
Experiment: Prolyl endopeptidase-inhibitory activity
Format: biochemical
Conditions: prolyl endopeptidase extracted from rat brain, pH 7.0, 30° C.; read-out: IC50
pIC50: −log10 of the molar value.
endpoint_name: pIC50

- molecule: "O=C(C[S@+]([O-])c1ccccc1)[C@@H]1CCCN1C(=O)[C@@H]1CCCN1C(=O)OCc1ccccc1"
  experimental_result: 9.70
- molecule: "CCOC(=O)CN(Cc1ccccc1)C(=O)N1CCC[C@H]1C(=O)N1CCC[C@H]1C(=O)COc1ccccc1"
  experimental_result: 8.70
- molecule: "Cc1ccc([S@@+]([O-])CC(=O)[C@@H]2CCCN2C(=O)[C@@H]2CCCN2C(=O)OCc2ccccc2)cc1"
  experimental_result: 9.52
- molecule: "COc1ccc(OCC(=O)[C@@H]2CCCN2C(=O)[C@@H]2CCCN2C(=O)CCc2ccccc2)cc1"
  experimental_result: 7.40
- molecule: "O=C(C[S+]([O-])c1ccccc1)[C@@H]1CCCN1C(=O)[C@@H]1CCCN1C(=O)CCCc1ccccc1 (some centres unmarked)"
  experimental_result: 9.52

----------
Test system: leucine aminopeptidase
Assay: Determination of leucine aminopeptidase-inhibitory activity
Type: biochemical, swine
Parameters: unit not given here
Conditions: 1 μM
endpoint_name: inhibition rate, leucine aminopeptidase

- structure_smiles_string: "O=C(COc1ccccc1)[C@@H]1CCCN1C(=O)[C@@H]1CSCN1C(=O)NCc1ccccc1"
  experimental_result: 0
- structure_smiles_string: "COc1ccc([S@@+]([O-])CC(=O)[C@@H]2CCCN2C(=O)[C@@H]2CCCN2C(=O)NCc2ccccc2)cc1"
  experimental_result: 0
- structure_smiles_string: "COc1ccc(OCC(=O)[C@@H]2CCCN2C(=O)[C@@H]2CCCN2C(=O)CNc2ccccc2)cc1"
  experimental_result: 0
- structure_smiles_string: "COc1ccc(OCC(=O)[C@@H]2CCCN2C(=O)[C@@H]2CCCN2C(=O)CCc2ccccc2)cc1"
  experimental_result: 0
- structure_smiles_string: "O=C(COc1ccccn1)[C@@H]1CCCN1C(=O)[C@@H]1CCCN1C(=O)NCc1ccccc1"
  experimental_result: 0
- structure_smiles_string: "COc1ccc([S@+]([O-])CC(=O)[C@@H]2CCCN2C(=O)[C@@H]2CCCN2C(=O)OCc2ccccc2)cc1"
  experimental_result: 0
- structure_smiles_string: "COc1ccc(OCC(=O)[C@@H]2CCCN2C(=O)[C@@H]2CCCN2C(=O)NCc2ccccc2)cc1"
  experimental_result: 0
- structure_smiles_string: "COc1ccc(OCC(=O)[C@@H]2CCCN2C(=O)[C@@H]2CCCN2C(=O)COc2ccccc2)cc1"
  experimental_result: 0
- structure_smiles_string: "COc1ccc(OCC(=O)[C@@H]2CCCN2C(=O)[C@@H]2CCCN2C(=O)OCC23CC4CC(CC(C4)C2)C3)cc1"
  experimental_result: 0
- structure_smiles_string: "COc1ccc(OCC(=O)[C@@H]2CCCN2C(=O)[C@@H]2CCCN2C(=O)CSc2ccccc2)cc1"
  experimental_result: 0
- structure_smiles_string: "O=C(COc1ccccc1)[C@@H]1CCCN1C(=O)[C@@H]1CCCN1C(=O)COc1ccccc1"
  experimental_result: 0

----------
Biological target: cathepsin B (Bos taurus)
Construct: purchased Sigma; host or cells: bovine spleen
Experiment: Determination of cathepsin B-inhibitory activity
Type: biochemical, bovine
Conditions: 0.1 μM; read-out: inhibition rate, cathepsin B
inhibition at 0.1 µM for assorted compounds
endpoint_name: inhibition at 0.1 µM (%)

- compound: "O=C(C[S+]([O-])c1ccc([N+](=O)[O-])cc1)[C@@H]1CCCN1C(=O)[C@@H]1CCCN1C(=O)OCc1ccccc1 (stereo partly drawn) [Compound 7]"
  unit_name: "%"
  experimental_result: 20
- compound: "CCCCCCCC(=O)N1CCC[C@H]1C(=O)N1CCC[C@H]1C(=O)COc1ccccc1 [Compound 31]"
  unit_name: "%"
  experimental_result: 0
- compound: "O=C(C[S@+]([O-])c1ccccc1)[C@@H]1CCCN1C(=O)[C@@H]1CCCN1C(=O)CCc1ccccc1 [Compound 17]"
  unit_name: "%"
  experimental_result: 0

Reference source for all entries: patent US5506256A
